Tested on: HepG2-ACTB-RAB5A
Experiment: phenotypically active (imaging signature differs from DMSO and reproducible) at any of 0.3-9 uM (binary (1 = active, 0 = inactive)); higher = active
Settings: treatment time: 24 h
Hi! Could you answer with just one of these? active, inactive

Some solved cases for reference:
CNC(C)(C)Cc1ccccc1 [mephentermine]	inactive
NC(=S)N/N=C/c1coc2ccccc2c1=O	inactive
C[C@@]12C(=O)OC(=O)[C@]1(C)[C@H]1CC[C@@H]2O1 [Cantharidin]	active

Query: // return assay outcome for O=c1ccc2ccc3occc3c2o1 [Angelicin]
Result: inactive

Query: // return assay outcome for C[C@]12CC[C@H](O)C[C@H]1CC[C@@H]1[C@@H]2CC[C@]2(C)[C@@H](C3=CC(=O)OC3)CC[C@]12O [Digitoxigenin]
Result: active

Query: // return assay outcome for N[C@H]1C[C@@H]1c1ccccc1 [tranylcypromine]
Result: inactive

Query: // return assay outcome for Cc1nnc2n1-c1ccc(Cl)cc1C(c1ccccc1)=NC2 [alprazolam]
Result: inactive

Query: // return assay outcome for CC1=C(O)C(=O)[C@@H]2O[C@@H]2C1=O [(-)-Terreic acid]
Result: inactive

Query: // return assay outcome for CC[C@H]1C[N@@]2CC[C@H]1C[C@H]2[C@@H](O)c1ccnc2ccc(O)cc12 [Hydrocupreine]
Result: inactive

Query: // return assay outcome for Cc1ccc(C[N+](C)(C)C)o1 [5-Methylfurmethiodide]
Result: inactive
